Settings: 293.15 K; 30000 kPa; Liquid
Recorded mass density values for a group of compounds are listed next.
outcome measure: mass density (kg/m3)

>  <compound>
CCCCCCCCn1cc[n+](C)c1.O=S(=O)([N-]S(=O)(=O)C(F)(F)F)C(F)(F)F

>  <unit annotation>
kg/m3

>  <recorded measurement>
1348

$$$$
>  <compound>
CCCCCCCn1cc[n+](C)c1.O=S(=O)([N-]S(=O)(=O)C(F)(F)F)C(F)(F)F

>  <unit annotation>
kg/m3

>  <recorded measurement>
1373

$$$$
>  <compound>
CCn1cc[n+](C)c1.F[B-](F)(F)F [1-ethyl-3-methylimidazolium tetrafluoroborate]

>  <unit annotation>
kg/m3

>  <recorded measurement>
1318

$$$$
>  <compound>
CCn1cc[n+](C)c1.O=S(=O)([N-]S(=O)(=O)C(F)(F)F)C(F)(F)F

>  <unit annotation>
kg/m3

>  <recorded measurement>
1547

$$$$
